Provenance of the data: the DeepSol protein solubility set

Assay details: soluble on expression in E. coli; label from the status in PepcDB or PDB records
Quantity name: soluble on expression in E. coli

# count of solved cases: 5
>  <Sequence content>
MAHHHHHHMPLTCRSFCEWALAYMGTQEYTPSIIQQRNSMAAAERDPDDRNVLDFSTYEDYLDQQVTGEDLFYLEDQDAARKIVELGYKGKDVLSREEFEAAQYLARTGPLKRRESAEVITSAGKDVSDSPLLTALAKREELVRTGKLATVLFLRDYVSGQEVSAYIDYGYRLRSENFEAYFKKDKKLLPKRSDLSYYNWKTHTLFYNNSPTFQVLADSTLGLVMKHKRDRKAIHVDPNSPSPGENCSRTVVPCKDYLQAVIYDHVTRRKN

>  <soluble on expression in E. coli>
soluble

$$$$
>  <Sequence content>
MGHHHHHHSHMLENRDYTLIIDKSGSMATPDQKGGRNRWVTAQESTLALASKCEQFDPDGITLYVFSGRFKRYENVTSAKVNQIFQENDPSGTTDLAAVLKHATDDYFQRKGAGKTKPNGETILVVTDGEPDDRKAVMRVIIEASRRMDKDEELAISFIQVGSDAQATRFLKVLDDELQGAGAKFDICDTVTMEDMEDLSLSEVLLNAITD

>  <soluble on expression in E. coli>
soluble

$$$$
>  <Sequence content>
TADNNSMPHGAVSSYAKLVQNQTPEDILEEFPEIIPLQQRPNTRSSETSNDESGETCFSGHDEEQIKLMNENCIVLDWDDNAIGAGTKKVCHLMENIEKGLLHRAFSVFIFNEQGELLLQQRATEKITFPDLWTNTCCSHPLCIDDELGLKGKLDDKIKGAITAAVRKLDHELGIPEDETKTRGKFHFLNRIHYMAPSNEPWGEHEIDYILFYKINAKENLTVNPNVNEVRDFKWVSPNDLKTMFADPSYKFTPWFKIICENYLFNWWEQLDDLSEVENDRQIHRML

>  <soluble on expression in E. coli>
soluble

$$$$
>  <Sequence content>
GHMEDFWVQYGDEMLPVIGDFPRKGDYLPSFMLVDDQKHDAALESFSHTPKLIVTLLSVDEDEHAGLLLLRETRRFLDSWPHLKLIVITVDSPSSLARARHEHGLPNIALLSTLRGRDFHKRYGVLITEYPLSGYTSPAIILADAANVVHYSERLANTRDFFDFDAIEKLLQEGEQQAMAAEREAAEARQEQDAEREKGTERLLEKAKLIQDQLNRNGDPGRGS

>  <soluble on expression in E. coli>
soluble

$$$$
>  <Sequence content>
NSSDYRALFLNDVPMMDARAPVEFSKGAFPGVINLPLMNDIERQKVGTCYKQHGQDAAIQLGHQLVCGQVKDERVEAWVEFARANPNGYLYCFRGGLRSQTVQRWLKDAGVDYPRILGGYKAMRTFLLDTLHEAVTE

>  <soluble on expression in E. coli>
not soluble

$$$$

Next sequence, please.
Can you look up the measured soluble on expression in E. coli of MNDGDETLTAGAQGRQFGPLGTALVIIPTYNEAENIKSIVGRVRASVPEAHVLVADDNSPDGTGKLADELAVEDDQVHVLHRKGKEGLGAAYLAGFRWGLDNGYGVLVEMDADGSHRPEELPRLLTALKGADLVLGSRWVPGGRVVNWPKSREFISRGGSLYSRLALDLPQRDITGGYRAFRRETLEGLGLDEVASQGYCFQVDLARRTVKAGYHVVEVPITFVEREFGDSKMSRDILVEALWRVTTWGVGERVGRITGRGPKSSLEHHHHHH for me?
not soluble
